test system: DiFi (Colorectal Carcinoma); test: combination Emax (second highest fraction inhibited in the dose matrix, 72 h); higher = more inhibition; extreme values may be limits of the assay
# key: entry, value: combination Emax
Lab note: write the figure by itself, no unit.

Known results for compounds:
CC1(C)CCC(CN2CCN(c3ccc(C(=O)NS(=O)(=O)c4ccc(NCC5CCOCC5)c([N+](=O)[O-])c4)c(Oc4cnc5[nH]ccc5c4)c3)CC2)=C(c2ccc(Cl)cc2)C1 [Venetoclax] + CCN(CCO)CCCOc1ccc2c(Nc3cc(CC(=O)Nc4cccc(F)c4)[nH]n3)ncnc2c1 [AZD2811] (first compound max 1 µM, 7x7, partner max 1 µM) = 0.486
C=CCn1c(=O)c2cnc(Nc3ccc(N4CCN(C)CC4)cc3)nc2n1-c1cccc(C(C)(C)O)n1 [AZD1775] + C[C@@H]1COCCN1C2=NC(=NC(=C2)C3(CC3)[S@](=N)(=O)C)C4=C5C=CNC5=NC=C4 [AZD6738] (first compound max 1 µM, partner max 10 µM) = 0.895

Checklist item: combination Emax tested on DiFi (Colorectal Carcinoma), entry CN(CCO)CC[C@H](CSc1ccccc1)Nc1ccc(S(=O)(=O)NC(=O)c2ccc(N3CCC([C@@H](O)c4ccccc4-c4ccc(Cl)cc4)CC3)cc2)cc1S(=O)(=O)C(F)(F)F [AZD4320] + C1CN(CCC1(C(=O)N[C@@H](CCO)C2=CC=C(C=C2)Cl)N)C3=NC=NC4=C3C=CN4 [Capivasertib] (first compound max 1 µM, 7x7, partner max 3 µM) , value?
0.804

---

tested on: NCI-H2818 (Mesothelioma); test: Bliss excess, mean over the matrix (fraction); higher = more synergy
assayEndpoint: Bliss excess
// print number alone

Would you kindly share the measured Bliss excess for CN(CCO)CC[C@H](CSc1ccccc1)Nc1ccc(S(=O)(=O)NC(=O)c2ccc(N3CCC([C@@H](O)c4ccccc4-c4ccc(Cl)cc4)CC3)cc2)cc1S(=O)(=O)C(F)(F)F [AZD4320] + CS(=O)(=O)CCNCc1ccc(-c2ccc3ncnc(Nc4ccc(OCc5cccc(F)c5)c(Cl)c4)c3c2)o1 [Lapatinib] (first compound max 1 µM, 7x7, partner max 10 µM) ?
-0.0332

Returns the measured Bliss excess for the input compound. Input: Cc1c2c(nn1C)CSCc1cc(n(C)n1)CSc1cc(c3ccccc3c1)OCCCc1c(C(=O)O)n(C)c3c-2c(Cl)ccc13 [AZD5991] + CS(=O)(=O)CCNCc1ccc(-c2ccc3ncnc(Nc4ccc(OCc5cccc(F)c5)c(Cl)c4)c3c2)o1 [Lapatinib] (first compound max 1 µM, 7x7, partner max 10 µM)
-0.0282

// lookup Bliss excess for COc1cc2ncnc(Nc3ccc(F)c(Cl)c3)c2cc1OCCCN1CCOCC1 [Gefitinib] + CC(C)n1c(=O)n(C)c2cnc3cc(F)c(-c4ccc(OCCCN5CCCCC5)nc4)cc3c21 [AZD1390] (first compound max 10 µM, 7x7, partner max 0.3 µM)
-0.0707

May I ask what Bliss excess has been recorded for Cc1cc2ncnn2cc1Nc1ncc2c(n1)n(C1CCOCC1)c(=O)n2C [AZD7648] + CCN(CCO)CCCOc1ccc2c(Nc3cc(CC(=O)Nc4cccc(F)c4)[nH]n3)ncnc2c1 [AZD2811] (first compound max 10 µM, 7x7, partner max 1 µM) ?
0.0283

---

test system: TE-6 (Esophageal Squamous Cell Carcinoma); test: combination Emax (second highest fraction inhibited in the dose matrix, 72 h); higher = more inhibition; extreme values may be limits of the assay
Recorded combination Emax by entry
Just the number.

Here's what some known entries look like.
CN(CCO)CC[C@H](CSc1ccccc1)Nc1ccc(S(=O)(=O)NC(=O)c2ccc(N3CCC([C@@H](O)c4ccccc4-c4ccc(Cl)cc4)CC3)cc2)cc1S(=O)(=O)C(F)(F)F [AZD4320] + CCN(CCO)CCCOc1ccc2c(Nc3cc(CC(=O)Nc4cccc(F)c4)[nH]n3)ncnc2c1 [AZD2811] (first compound max 1 µM, 7x7, partner max 1 µM) = 0.524
CC(=O)Nc1cccc(-n2c(=O)n(C3CC3)c(=O)c3c(Nc4ccc(I)cc4F)n(C)c(=O)c(C)c32)c1 [Trametinib] + Cc1nc(-c2cn3c(n2)-c2ccc(-c4cnn(C(C)(C)C(N)=O)c4)cc2OCC3)n(C(C)C)n1 [Taselisib] (first compound max 1 µM, 7x7, partner max 10 µM) = 0.908

Report combination Emax for Cc1c2c(nn1C)CSCc1cc(n(C)n1)CSc1cc(c3ccccc3c1)OCCCc1c(C(=O)O)n(C)c3c-2c(Cl)ccc13 [AZD5991] + CCN(CCO)CCCOc1ccc2c(Nc3cc(CC(=O)Nc4cccc(F)c4)[nH]n3)ncnc2c1 [AZD2811] (first compound max 1 µM, 7x7, partner max 1 µM) please.
0.715

What value of combination Emax has been reported for the following molecule? C[C@@H]1COCCN1c1cc(C2([S@](C)(=N)=O)CC2)nc(-c2ccnc3[nH]ccc23)n1 [AZD6738] + O=C(c1cc(Cc2n[nH]c(=O)c3ccccc23)ccc1F)N1CCN(C(=O)C2CC2)CC1 [Olaparib] (first compound max 10 µM, 7x7, partner max 10 µM)
0.498

Reported combination Emax for C=CCn1c(=O)c2cnc(Nc3ccc(N4CCN(C)CC4)cc3)nc2n1-c1cccc(C(C)(C)O)n1 [AZD1775] + C[C@@H]1COCCN1C2=NC(=NC(=C2)C3(CC3)[S@](=N)(=O)C)C4=C5C=CNC5=NC=C4 [AZD6738] (first compound max 1 µM, partner max 10 µM) : what is it?
0.669

Fill in: combination Emax of Cn1cnc2c(F)c(Nc3ccc(Br)cc3Cl)c(C(=O)NOCCO)cc21 [Selumetinib] + C[C@@H]1COCCN1C2=NC(=NC(=C2)C3(CC3)[S@](=N)(=O)C)C4=C5C=CNC5=NC=C4 [AZD6738] (first compound max 10 µM, 7x7, partner max 10 µM) is ___
0.671

What does the data say about its combination Emax? Entry: Cn1cnc2c(F)c(Nc3ccc(Br)cc3Cl)c(C(=O)NOCCO)cc21 [Selumetinib] + C=CCn1c(=O)c2cnc(Nc3ccc(N4CCN(C)CC4)cc3)nc2n1-c1cccc(C(C)(C)O)n1 [AZD1775] (first compound max 10 µM, partner max 1 µM)
0.506

---

test system: WIL2-NS (Non-Cancerous); experiment: combination Emax (second highest fraction inhibited in the dose matrix, 72 h); higher = more inhibition; extreme values may be limits of the assay
assayEndpoint: combination Emax
Answer as a number with no unit attached.

Which combination Emax value belongs to N#Cc1cnc(Nc2cc(NC[C@H]3CNCCO3)c(C(F)(F)F)cn2)cn1 [SRA737] + O=c1[nH]cc(F)c(=O)[nH]1 [5-Fluorouracil] (first compound max 10 µM, 7x7, partner max 20 µM) ?
0.957

---

system: EVSA-T (Breast Carcinoma); assay: Bliss excess, mean over the matrix (fraction); higher = more synergy
assayEndpoint: Bliss excess
Just the number, please, no unit after it.

CC(=O)c1c(C)c2cnc(Nc3ccc(N4CCNCC4)cn3)nc2n(C2CCCC2)c1=O [Palbociclib] + CN(CC[C@H](CSC1=CC=CC=C1)NC2=C(C=C(C=C2)S(=O)(=O)NC(=O)C3=CC=C(C=C3)N4CCC(CC4)[C@H](C5=CC=CC=C5C6=CC=C(C=C6)Cl)O)S(=O)(=O)C(F)(F)F)CCO [AZD4320] (first compound max 10 µM, 7x7, partner max 1 µM) = -0.0631

Would you mind telling me what Bliss excess value was observed for COc1nnc2ccc(N3CCC(c4ccc(OCCN5CCN(C)C(=O)[C@H]5C)cc4)CC3)nn12 [AZD5153] + C[C@@H]1COCCN1C2=NC(=NC(=C2)C3(CC3)[S@](=N)(=O)C)C4=C5C=CNC5=NC=C4 [AZD6738] (first compound max 1 µM, 7x7, partner max 10 µM) ?
0.0026

---

system: DND-41 (T-Lymphoblastic Leukemia); assay: Bliss excess, mean over the matrix (fraction); higher = more synergy
Tick Met if Bliss excess is 0.002 or greater. Tick Not met if Bliss excess is less than 0.002.

C[C@@H]1COCCN1c1cc(C2([S@](C)(=N)=O)CC2)nc(-c2ccnc3[nH]ccc23)n1 [AZD6738] + Nc1ccn([C@@H]2O[C@H](CO)[C@@H](O)C2(F)F)c(=O)n1 [Gemcitabine] (first compound max 10 µM, 7x7, partner max 0.3 µM) = Met
CC1(C)CCC(CN2CCN(c3ccc(C(=O)NS(=O)(=O)c4ccc(NCC5CCOCC5)c([N+](=O)[O-])c4)c(Oc4cnc5[nH]ccc5c4)c3)CC2)=C(c2ccc(Cl)cc2)C1 [Venetoclax] + C1CN(CCC1(C(=O)N[C@@H](CCO)C2=CC=C(C=C2)Cl)N)C3=NC=NC4=C3C=CN4 [Capivasertib] (first compound max 1 µM, 7x7, partner max 3 µM) = Not met
CC1(C)CCC(CN2CCN(c3ccc(C(=O)NS(=O)(=O)c4ccc(NCC5CCOCC5)c([N+](=O)[O-])c4)c(Oc4cnc5[nH]ccc5c4)c3)CC2)=C(c2ccc(Cl)cc2)C1 [Venetoclax] + Cn1cnc2c(F)c(Nc3ccc(Br)cc3Cl)c(C(=O)NOCCO)cc21 [Selumetinib] (first compound max 1 µM, 7x7, partner max 3 µM) = Not met
CC1(C)CCC(CN2CCN(c3ccc(C(=O)NS(=O)(=O)c4ccc(NCC5CCOCC5)c([N+](=O)[O-])c4)c(Oc4cnc5[nH]ccc5c4)c3)CC2)=C(c2ccc(Cl)cc2)C1 [Venetoclax] + CS(=O)(=O)CCNCc1ccc(-c2ccc3ncnc(Nc4ccc(OCc5cccc(F)c5)c(Cl)c4)c3c2)o1 [Lapatinib] (first compound max 1 µM, 7x7, partner max 10 µM) = Not met
Cc1c2c(nn1C)CSCc1cc(n(C)n1)CSc1cc(c3ccccc3c1)OCCCc1c(C(=O)O)n(C)c3c-2c(Cl)ccc13 [AZD5991] + CC(=O)O[C@H]1C(=O)[C@@]2(C)[C@H]([C@H](OC(=O)c3ccccc3)[C@]3(O)C[C@H](OC(=O)[C@H](O)[C@@H](NC(=O)c4ccccc4)c4ccccc4)C(C)=C1C3(C)C)[C@]1(OC(C)=O)CO[C@@H]1C[C@@H]2O [Paclitaxel] (first compound max 1 µM, 7x7, partner max 3 µM) = Met

Could you now consider this next molecule?
Hi, just wondering whether C[C@@H](Nc1cc(F)cc(F)c1)c1cc(C(=O)N(C)C)cc2c(=O)cc(N3CCOCC3)oc12 [AZD8186] + CC(=O)c1c(C)c2cnc(Nc3ccc(N4CCNCC4)cn3)nc2n(C2CCCC2)c1=O [Palbociclib] (first compound max 10 µM, 7x7, partner max 10 µM) shows Bliss excess of 0.002 or higher.
Met
